Biological target: UniProt:Q96KQ7
Experiment: G9a AlphaLISA enzymatic activity assay
Format: biochemical
Conditions: 0.15 nM G9a, 15 uM S-adenosyl-methionine, 100 nM biotinylated histone 3 peptide (1-21), 1 hour at room temperature; read-out: G9a in (uM) (IC50, concentration that produced 50% inhibition)
Description: The G9a AlphaLISA assay was used to detect the methyl modifications of a biotinylated histone H3 peptide by the compounds. These modifications are done by the histone methyl transferase activity of the G9a enzyme. The assay consists of reading a chemiluminescent signal at 615 nm; this signal is generated by a laser excitation at 680 nm that transfers a reactive singlet oxygen between the donor beads and acceptor beads. Donor beads are streptavidin conjugated and bind to the biotin on the peptide. […]
Where a name gives a salt, the structure may show the parent alone.
endpoint: IC50 (µM)
# output: bare number, implied unit µM

Field: example entries. Status: answers known.
COc1cc2c3c(c(N[C@H]4C[C@H](O)C4)nc2cc1OCCCN1CCCC1)CCCC3 = 0.5
CCN(CC)CCCOc1cc2nc(NC(C)C)c3c(c2cc1OC)CCC3 [Example 93, formate] = 0.39
COc1cc2c3c(c(NC4CC4)nc2cc1OCCCN1CCCC1)COC3 = 0.97

q: Dear colleague, please send me the reported IC50 for COc1cc2c3c(c(NC(C)C)nc2cc1OCCCN1CCCC1)CCC(C)N3 (stereo not shown) [Example 30, formate] when you can.
a: 0.008

----------
# reported log10 IC50; entries follow
target: G9a (Homo sapiens, UniProt Q96KQ7); test: G9a AlphaLISA enzymatic activity assay; format: biochemical; conditions: 0.15 nM G9a, 15 uM S-adenosyl-methionine, 100 nM biotinylated histone 3 peptide (1-21), 1 hour at room temperature; read-out: G9a in (uM) (IC50, concentration that produced 50% inhibition)
Structures can show the parent of a compound that is named as a salt.
Note: values are log10 of IC50 expressed in µM.

Field: example entries. Status: answers known.
COc1cc2c3c(cnc2cc1OCCCN1CCCC1)CC(C)(C)N3 [Example 35, formate] = -1.92
COc1cc2c3c(c(C4CCCC4)nc2cc1OCCCN1CCCC1)CCCCN3 = -2.52

q: Dear colleague, please send me the reported log10 IC50 for COc1cc2c3c(c(N[C@@H]4CCOC4)nc2cc1OCCCN1CCCC1)CCC3 [Example 17, formate] when you can.
a: -0.68

q: Dear colleague, please send me the reported log10 IC50 for COc1cc2c3c(c(NC4CC4)nc2cc1OCCCN1CCCC1)CCCC3 [Example 19, formate] when you can.
a: -1.24

q: Dear colleague, please send me the reported log10 IC50 for COc1cc2c3c(c(C)nc2cc1OCCCN1CCCC1)CCCCN3 [Example 82, trifluoroacetate] when you can.
a: -2.22

q: Dear colleague, please send me the reported log10 IC50 for COc1cc2c3c(c(N[C@H]4CCC[C@@H]4O)nc2cc1OCCCN1CCCC1)CCC3 when you can.
a: 0.67

q: Dear colleague, please send me the reported log10 IC50 for Cl.Cl.[2H]C(C)(C)Nc1nc2cc(OCCCN3CCCC3)c(OC)cc2c2c1CCC2 when you can.
a: -1.89

q: Dear colleague, please send me the reported log10 IC50 for COc1cc2c3c(c(NC(C)C)nc2cc1OCCCN1CCCC1)COC3 when you can.
a: -0.59

----------
# reported IC50; entries follow
biological target: G9a (Homo sapiens, UniProt Q96KQ7); experiment: G9a AlphaLISA enzymatic activity assay; type: biochemical; settings: 0.15 nM G9a, 15 uM S-adenosyl-methionine, 100 nM biotinylated histone 3 peptide (1-21), 1 hour at room temperature; read-out: G9a in (uM) (IC50, concentration that produced 50% inhibition)
Counter-ions that a name gives are not always drawn.
# output: bare number, implied unit µM

COc1cc2c3c(c(NC(C)C)nc2cc1OCCCN1CCCC1)CCCCN3 [Example 34, formate] = 0.01

q: Dear colleague, please send me the reported IC50 for COc1cc2c3c(c(N[C@H]4CCC[C@H]4O)nc2cc1OCCCN1CCCC1)CCC3 (racemic) [Example 125, formate salt] when you can.
a: 1

q: Dear colleague, please send me the reported IC50 for CCNc1nc2cc(OCCCN3CCCC3)c(OC)cc2c2c1COCC2 [Example 58, formate] when you can.
a: 0.17

q: Dear colleague, please send me the reported IC50 for COc1cc2c3c(c(NC(C)C)nc2cc1OCCCN1CCCC1)CC(C)C3 (stereo not shown) [Example 6, formate] when you can.
a: 0.027

----------
molecular target: G9a (Homo sapiens, UniProt Q96KQ7); assay: G9a AlphaLISA enzymatic activity assay; type: biochemical; conditions: 0.15 nM G9a, 15 uM S-adenosyl-methionine, 100 nM biotinylated histone 3 peptide (1-21), 1 hour at room temperature; read-out: G9a in (uM) (IC50, concentration that produced 50% inhibition)
Structures can show the parent of a compound that is named as a salt.
# reported log10 IC50; entries follow
Note: values are log10 of IC50 expressed in µM.

CNc1nc2cc(OCCCN3CCCC3)c(OC)cc2c2c1COC2 [Example 59, formate] = -0.64
COc1cc2c3c(c(NC(C)(C)C)nc2cc1OCCCN1CCCC1)CCC3 [Example 94, formate] = 0.15
COc1cc2c3c(c(N[C@H]4CCCC[C@@H]4O)nc2cc1OCCCN1CCCC1)CCC3 [Example 122] = -1.37

Next item in the queue.
q: Dear colleague, please send me the reported log10 IC50 for COc1cc2c3c(c(C(C)C)nc2cc1OCCCN1CCCC1)CCC(C)(C)N3 [Example 77, formate] when you can.
a: -2.15

----------
Target: G9a (Homo sapiens, UniProt Q96KQ7)
Sequence (Q96KQ7 1-1210): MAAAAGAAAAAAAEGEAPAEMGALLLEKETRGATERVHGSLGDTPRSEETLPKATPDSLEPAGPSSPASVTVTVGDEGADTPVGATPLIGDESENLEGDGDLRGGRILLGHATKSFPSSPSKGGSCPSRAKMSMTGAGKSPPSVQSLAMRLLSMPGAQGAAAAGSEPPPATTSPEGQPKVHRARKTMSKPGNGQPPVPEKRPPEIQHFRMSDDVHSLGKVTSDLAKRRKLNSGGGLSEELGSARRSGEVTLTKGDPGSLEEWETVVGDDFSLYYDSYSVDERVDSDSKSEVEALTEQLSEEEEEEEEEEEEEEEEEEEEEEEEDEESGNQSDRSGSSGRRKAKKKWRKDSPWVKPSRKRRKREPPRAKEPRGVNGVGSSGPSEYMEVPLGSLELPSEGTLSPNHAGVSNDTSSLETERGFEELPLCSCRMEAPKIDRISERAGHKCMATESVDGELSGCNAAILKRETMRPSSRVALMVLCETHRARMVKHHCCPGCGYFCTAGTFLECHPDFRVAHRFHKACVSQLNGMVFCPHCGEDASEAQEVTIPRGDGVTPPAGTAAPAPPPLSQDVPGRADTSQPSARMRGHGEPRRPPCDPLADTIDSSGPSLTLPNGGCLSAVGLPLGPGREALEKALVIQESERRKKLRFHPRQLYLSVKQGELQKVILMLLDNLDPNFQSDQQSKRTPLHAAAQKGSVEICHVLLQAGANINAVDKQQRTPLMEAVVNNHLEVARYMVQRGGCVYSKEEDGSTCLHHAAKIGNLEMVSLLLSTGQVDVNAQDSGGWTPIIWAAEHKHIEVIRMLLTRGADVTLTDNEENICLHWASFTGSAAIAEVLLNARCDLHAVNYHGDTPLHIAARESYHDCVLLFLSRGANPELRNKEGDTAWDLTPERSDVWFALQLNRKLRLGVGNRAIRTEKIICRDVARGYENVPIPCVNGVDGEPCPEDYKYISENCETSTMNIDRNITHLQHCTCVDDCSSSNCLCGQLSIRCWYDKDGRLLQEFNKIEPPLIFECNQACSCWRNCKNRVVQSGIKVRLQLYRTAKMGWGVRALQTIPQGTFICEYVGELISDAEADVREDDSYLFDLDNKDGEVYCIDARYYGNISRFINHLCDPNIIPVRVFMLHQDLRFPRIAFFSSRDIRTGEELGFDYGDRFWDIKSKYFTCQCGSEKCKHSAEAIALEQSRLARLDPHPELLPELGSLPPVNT
Assay: G9a AlphaLISA enzymatic activity assay
Format: biochemical
Details: 0.15 nM G9a, 15 uM S-adenosyl-methionine, 100 nM biotinylated histone 3 peptide (1-21), 1 hour at room temperature; read-out: G9a in (uM) (IC50, concentration that produced 50% inhibition)
Structures can show the parent of a compound that is named as a salt.
Consider the reported IC50 of an entry and match it to a band in I (below 0.009 µM), II (0.009 µM to below 0.04 µM), III (0.04 µM or more)

Worked cases, answers included:
CCNc1nc2cc(OCCCN3CCCC3)c(OC)cc2c2c1CC(C)(C)C2 [Example 74, formate] = II
COc1cc2c3c(c(N)nc2cc1OCCCN1CCCC1)CCC3 [Example 116, formate] = I
CNc1nc2cc(OCCCN3CCCC3)c(OC)cc2c2c1CCCC2 [Example 2, formate] = II
COc1cc2c3c(cnc2cc1OCCCN1CCCC1)CCC3 [Example 21, trifluoroacetate] = III
COc1cc2c3c(c(N[C@@H](C)C4CC4)nc2cc1OCCCN1CCCC1)CCC3 [Example 88, formate] = I

q: In plain terms, what class is CCNc1nc2cc(OCCCN3CCCC3)c(OC)cc2c2c1COC2 [Example 60, formate] ?
a: III

q: In plain terms, what class is COc1cc2c3c(c(NC(C)C)nc2cc1OCCCN(C)C)CCC3 [Example 92, formate] ?
a: III

q: In plain terms, what class is COc1cc2c3c(c(-c4ccccc4)nc2cc1OCCCN1CCCC1)CCC3 [Example 111, formate] ?
a: III

q: In plain terms, what class is COc1cc2c3c(c(NCC(C)(C)C)nc2cc1OCCCN1CCCC1)CCC3 [Example 101, formate] ?
a: III

q: In plain terms, what class is CCNc1nc2cc(OCCCN3CCCC3)c(OC)cc2c2c1CCC2 [Example 106, trifluoroacetate] ?
a: II

q: In plain terms, what class is COc1cc2c3c(c(C4CCOC4)nc2cc1OCCCN1CCCC1)CCC3 (centres unmarked) [Example 98, formate] ?
a: III

q: In plain terms, what class is COc1cc2c3c(c(NC(C)C)nc2cc1OCCCN1CCCC1)CCCN3 [Example 27, trifluoroacetate] ?
a: I
